Quick reference: Fold Change to Chimeric Ab of the listed items.
System: T1, human CD33 (human, UniProt P20138 18-259, limits assumed)
T1 construct: Human CD33 immobilized on the BLI sensor tip or the BIAcore C1 chip; also called Siglec-3
T1 sequence (P20138 18-259 limits assumed): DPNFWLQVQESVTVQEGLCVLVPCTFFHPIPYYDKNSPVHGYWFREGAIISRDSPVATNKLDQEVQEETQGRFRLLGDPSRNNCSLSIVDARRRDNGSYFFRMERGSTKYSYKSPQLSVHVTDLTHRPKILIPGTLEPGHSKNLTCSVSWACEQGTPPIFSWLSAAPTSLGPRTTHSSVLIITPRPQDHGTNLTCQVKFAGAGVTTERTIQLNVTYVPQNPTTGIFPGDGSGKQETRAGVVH
Protocol Details: SPR (BIAcore), Fab over CD33 on C1 chip

Binder	Fold Change to Chimeric Ab (fold)
AB-64.7 (antibody, V domains shown) VH: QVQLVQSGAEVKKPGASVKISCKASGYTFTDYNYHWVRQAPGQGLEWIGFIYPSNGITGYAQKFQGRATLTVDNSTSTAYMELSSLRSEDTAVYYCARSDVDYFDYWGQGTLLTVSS VL: DIVLTQSPDSLAVSLGERATINCRASQSVGTSTYSYMHWYQQKPGQPPKLLIKYASNLNSGVPDRFSGSGSGTDFTLTISSLQAEDVAVYYCQHSEEIPLTFGQGTKLEIK	163
AB-64.1.2 (antibody, V domains shown, Variant of AB-64.1) VH: QVQLVQSGAEVKKPGASVKISCKASGYTFTDYNLHWVRQAPGQGLEWIGFIYPSNRITGYAQKFQGRATLTVDNSTSTAYMELSSLRSEDTAVYYCARSDVDYFDYWGQGTLLTVSS VL: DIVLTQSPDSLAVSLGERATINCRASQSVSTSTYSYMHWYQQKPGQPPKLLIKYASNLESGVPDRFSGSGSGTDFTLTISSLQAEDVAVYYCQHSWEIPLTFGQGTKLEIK	8.8
AB-64.8 (antibody, V domains shown) VH: QVQLVQSGAEVKKPGASVKISCKASGYTFTDYNYHWVRQAPGQGLEWIGFIYPSNGITGYAQKFQHRATLTVDNSTSTAYMELSSLRSEDTAVYYCARSDVDYFDYWGQGTLLTVSS VL: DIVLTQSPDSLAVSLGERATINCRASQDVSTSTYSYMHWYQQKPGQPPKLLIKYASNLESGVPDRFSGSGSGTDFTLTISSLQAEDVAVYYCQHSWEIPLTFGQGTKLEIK	242
